- Method: Volume of distribution in Sprague-Dawley rat at 5 mg/kg, iv administered as 2 mins of infusion by LC-MS/MS method
- Type: ADME, organism-based
- Recorded Conditions: in vivo
Reported Endpoint: Vd (L/kg)
Number in L/kg, nothing else.

Fill in the blank: the reported Vd of Fc1ccc(Nc2cc3[nH]c(-c4ccc(F)c(C(F)(F)F)c4)nc3cn2)nc1 is ____. 2.3

---

- Method: Tmax in BALB/c mouse at 20 mg/kg administered via oral gavage as bolus dose by LC-MS/MS method
- Type: ADME, organism-based
- Recorded Conditions: in vivo
Reported Endpoint: Tmax (h)
The reply should be a number in h, with the unit left off.

Tmax lookup needed for FC1(F)CCC(c2nc3cnc(Nc4ccc(C(F)(F)F)cn4)cc3[nH]2)CC1 , thanks. 1
